Data credit: ChEMBL document CHEMBL6096649

Test system: Prunus dulcis
Test: Inhibition of almond Beta-glucosidase using p-nitrophenyl glycoside as substrate assessed as release of p-nitrophenol at 1000 uM by spectrometric analysis relative to control
Kind request: treat 3% as inclusive, so inhibition at 3% or higher is fulfilled, anything lower is not fulfilled.

The examples below pair each entry with its known result.
[
  {
    "Structure notation": "O[C@@H]1[C@@H]2[C@@H](O)C[C@H](F)CN2C[C@@H]1O",
    "Group label": "not fulfilled"
  },
  {
    "Structure notation": "O[C@H]1[C@H]2[C@@H](O)CC(F)(F)CN2C[C@H]1O",
    "Group label": "fulfilled"
  },
  {
    "Structure notation": "O[C@H]1[C@H]2[C@@H](O)CCCN2C[C@H]1O",
    "Group label": "fulfilled"
  },
  {
    "Structure notation": "O[C@@H]1[C@@H]2[C@H](O)CCCN2C[C@@H]1O",
    "Group label": "not fulfilled"
  },
  {
    "Structure notation": "O[C@@H]1[C@@H]2[C@H](O)CC(F)(F)CN2C[C@@H]1O",
    "Group label": "not fulfilled"
  }
]

Check if inhibition >= 3% (inclusive). Item: O[C@H]1[C@H]2[C@H](O)C[C@H](F)CN2C[C@H]1O
not fulfilled

Does the reported inhibition for O[C@@H]1[C@@H]2[C@H](O)C[C@H](F)CN2C[C@@H]1O fall at or above the 3% mark?
fulfilled

hey, is inhibition for this one >= 3%? O[C@@H]1[C@@H]2[C@@H](O)CCCN2C[C@@H]1O
fulfilled

Is inhibition for O[C@H]1[C@H]2[C@H](O)CC(F)(F)CN2C[C@H]1O at or above 3%?
fulfilled

###

Entries annotated with measured inhibition
Target: Alpha-glucosidase (Saccharomyces cerevisiae S288c) (UniProt P53341+P38158+P07265)
Test: Inhibition of yeast Alpha-glucosidase using p-nitrophenyl glycoside as substrate assessed as p-nitrophenol release at 1000 uM by spectrometric analysis relative to control
Type: protein assay
Give just the numeric value; % need not be written.

[
  {
    "Structure notation": "O[C@H]1[C@H]2[C@H](O)CCCN2C[C@H]1O",
    "inhibition / %": 0
  },
  {
    "Structure notation": "O[C@H]1[C@H]2[C@H](O)C[C@H](F)CN2C[C@H]1O",
    "inhibition / %": 1.7
  }
]

// next entry
// compound O[C@@H]1[C@@H]2[C@H](O)CC(F)(F)CN2C[C@@H]1O , assay Alpha-glucosidase (Saccharomyces cerevisiae S288c) (UniProt P53341+P38158+P07265), inhibition value: 0

###

System: Penicillium decumbens
Experiment: Inhibition of Penicillium decumbens alpha-L-rhamnosidase using p-nitrophenyl glycoside as substrate assessed as release of p-nitrophenol at 1000 uM by spectrometric analysis relative to control
Endpoint: inhibition (%)
Number in %, nothing else.

Guide cases for inhibition, answers given:
[
  {
    "Compound": "O[C@H]1[C@H]2[C@@H](O)C[C@H](F)CN2C[C@H]1O",
    "Numeric result": 11.3
  },
  {
    "Compound": "O[C@@H]1[C@@H]2[C@@H](O)CCCN2C[C@@H]1O",
    "Numeric result": 0.26
  },
  {
    "Compound": "O[C@@H]1[C@@H]2[C@@H](O)C[C@H](F)CN2C[C@@H]1O",
    "Numeric result": 0.43
  },
  {
    "Compound": "O[C@@H]1[C@@H]2[C@H](O)C[C@@H](F)CN2C[C@@H]1O",
    "Numeric result": 125
  },
  {
    "Compound": "O[C@H]1[C@H]2[C@H](O)C[C@H](F)CN2C[C@H]1O",
    "Numeric result": 14.4
  },
  {
    "Compound": "O[C@H]1[C@H]2[C@H](O)CC(F)(F)CN2C[C@H]1O",
    "Numeric result": 20.4
  }
]

The reported value for O[C@@H]1[C@@H]2[C@@H](O)C[C@@H](F)CN2C[C@@H]1O in terms of inhibition is 5.2

Looking up O[C@H]1[C@H]2[C@H](O)CCCN2C[C@H]1O [TRIDOLGOSIR] , I see its inhibition listed as 34.2

Item: O[C@@H]1[C@@H]2[C@H](O)CCCN2C[C@@H]1O | inhibition: 58

Noted for O[C@H]1[C@H]2[C@@H](O)CCCN2C[C@H]1O : its inhibition reads 47.5

Value of measured inhibition for the entry O[C@@H]1[C@@H]2[C@@H](O)CC(F)(F)CN2C[C@@H]1O : 2.2

Per the records, this compound ( O[C@H]1[C@H]2[C@@H](O)C[C@@H](F)CN2C[C@H]1O ) has inhibition equal to 118

The measured inhibition associated with O[C@@H]1[C@@H]2[C@H](O)C[C@H](F)CN2C[C@@H]1O reads 52

###

Species on record: Bos taurus
Assay: Inhibition of bovine liver beta-glucuronidase using p-nitrophenyl glycoside as substrate assessed as release of p-nitrophenol at 1000 uM by spectrometric analysis relative to control
Decide by inhibition: equal to or exceeding 10% means t, less means f.

Recorded results for 6 compounds are shown here.
[
  {
    "Compound": "O[C@H]1[C@H]2[C@@H](O)C[C@H](F)CN2C[C@H]1O",
    "Group label": "f"
  },
  {
    "Compound": "O[C@H]1[C@H]2[C@@H](O)CCCN2C[C@H]1O",
    "Group label": "f"
  },
  {
    "Compound": "O[C@H]1[C@H]2[C@H](O)CC(F)(F)CN2C[C@H]1O",
    "Group label": "t"
  },
  {
    "Compound": "O[C@H]1[C@H]2[C@H](O)CCCN2C[C@H]1O [TRIDOLGOSIR]",
    "Group label": "f"
  },
  {
    "Compound": "O[C@H]1[C@H]2[C@H](O)C[C@H](F)CN2C[C@H]1O",
    "Group label": "f"
  },
  {
    "Compound": "O[C@@H]1[C@@H]2[C@@H](O)CC(F)(F)CN2C[C@@H]1O",
    "Group label": "t"
  }
]

Does the reported inhibition for O[C@H]1[C@H]2[C@@H](O)CC(F)(F)CN2C[C@H]1O fall at or above the 10% mark?
t

###

Target: Alpha glucosidase (Homo sapiens) (UniProt O43451+P10253+P14410+Q2M2H8)
Experiment: Inhibition of human Alpha-glucosidase using p-nitrophenyl glycoside as substrate assessed as p-nitrophenol release at 1000 uM by spectrometric analysis relative to control
Format: protein assay
// class 0 strictly below 6% in inhibition; class 1 otherwise

[
  {
    "Structure notation": "O[C@H]1[C@H]2[C@H](O)CC(F)(F)CN2C[C@H]1O",
    "Group label": "class 1"
  },
  {
    "Structure notation": "O[C@H]1[C@H]2[C@@H](O)CC(F)(F)CN2C[C@H]1O",
    "Group label": "class 0"
  },
  {
    "Structure notation": "O[C@H]1[C@H]2[C@H](O)C[C@@H](F)CN2C[C@H]1O",
    "Group label": "class 0"
  }
]

Please tell me: is the molecule O[C@H]1[C@H]2[C@@H](O)C[C@H](F)CN2C[C@H]1O at or over 6% in terms of inhibition?
class 0

Reported inhibition at or above 6%? O[C@@H]1[C@@H]2[C@H](O)CCCN2C[C@@H]1O
class 0
